# System: HCT-116
# ASSAY OVERVIEW: Cytotoxicity against human HCT116 cells after 48 hrs by MTT assay
# Assay type: functional, cell-based
# MEASUREMENT CONTEXT: HCT-116, 48 h
pIC50: −log10 of the molar value.
# cutoff 5 applies to pIC50; >= gives MET, < gives NOT MET

INSERT INTO measurements (smiles_repr, tested_target, class) VALUES
  ('CCCCN1C(=O)c2ccc3c4c(ccc(c24)C1=O)C(=O)N(CCCN(C)C)C3=O', 'HCT-116', 'NOT MET'),
  ('CCCCN1C(=O)c2ccc3c4c(ccc(c24)C1=O)C(=O)N(CCC)C3=O', 'HCT-116', 'NOT MET'),
  ('CCCCN1C(=O)c2ccc3c4c(ccc(c24)C1=O)C(=O)N(CCCN1CCOCC1)C3=O', 'HCT-116', 'NOT MET'),
  ('CCCCN1C(=O)c2ccc3c4c(ccc(c24)C1=O)C(=O)N(C1CCCCC1)C3=O', 'HCT-116', 'NOT MET'),
  ('CCCCN1C(=O)c2ccc3c4c(ccc(c24)C1=O)C(=O)N(C1CC1)C3=O', 'HCT-116', 'NOT MET'),
  ('CN(C)CCCN1C(=O)c2ccc3c4c(ccc(c24)C1=O)C(=O)N(CCCO)C3=O', 'HCT-116', 'MET'),
  ('O=C1c2ccc3c4c(ccc(c24)C(=O)N1CCCO)C(=O)N(CCCN1CCOCC1)C3=O', 'HCT-116', 'MET'),
  ('CCCCN1C(=O)c2ccc3c4c(ccc(c24)C1=O)C(=O)N(CC1CC1)C3=O', 'HCT-116', 'NOT MET');

Reference source for all entries: ChEMBL document CHEMBL4257544
